pMet inhibition in H441 cells IC50 values by entry
- STUDY_TARGET: human c-Met on cells (NCI-H441, NCI-H292, U87-MG) (human, UniProt P08581 25-1390)
- Sequence (P08581 other isoform, or with tags, fused parts or gaps limits assumed): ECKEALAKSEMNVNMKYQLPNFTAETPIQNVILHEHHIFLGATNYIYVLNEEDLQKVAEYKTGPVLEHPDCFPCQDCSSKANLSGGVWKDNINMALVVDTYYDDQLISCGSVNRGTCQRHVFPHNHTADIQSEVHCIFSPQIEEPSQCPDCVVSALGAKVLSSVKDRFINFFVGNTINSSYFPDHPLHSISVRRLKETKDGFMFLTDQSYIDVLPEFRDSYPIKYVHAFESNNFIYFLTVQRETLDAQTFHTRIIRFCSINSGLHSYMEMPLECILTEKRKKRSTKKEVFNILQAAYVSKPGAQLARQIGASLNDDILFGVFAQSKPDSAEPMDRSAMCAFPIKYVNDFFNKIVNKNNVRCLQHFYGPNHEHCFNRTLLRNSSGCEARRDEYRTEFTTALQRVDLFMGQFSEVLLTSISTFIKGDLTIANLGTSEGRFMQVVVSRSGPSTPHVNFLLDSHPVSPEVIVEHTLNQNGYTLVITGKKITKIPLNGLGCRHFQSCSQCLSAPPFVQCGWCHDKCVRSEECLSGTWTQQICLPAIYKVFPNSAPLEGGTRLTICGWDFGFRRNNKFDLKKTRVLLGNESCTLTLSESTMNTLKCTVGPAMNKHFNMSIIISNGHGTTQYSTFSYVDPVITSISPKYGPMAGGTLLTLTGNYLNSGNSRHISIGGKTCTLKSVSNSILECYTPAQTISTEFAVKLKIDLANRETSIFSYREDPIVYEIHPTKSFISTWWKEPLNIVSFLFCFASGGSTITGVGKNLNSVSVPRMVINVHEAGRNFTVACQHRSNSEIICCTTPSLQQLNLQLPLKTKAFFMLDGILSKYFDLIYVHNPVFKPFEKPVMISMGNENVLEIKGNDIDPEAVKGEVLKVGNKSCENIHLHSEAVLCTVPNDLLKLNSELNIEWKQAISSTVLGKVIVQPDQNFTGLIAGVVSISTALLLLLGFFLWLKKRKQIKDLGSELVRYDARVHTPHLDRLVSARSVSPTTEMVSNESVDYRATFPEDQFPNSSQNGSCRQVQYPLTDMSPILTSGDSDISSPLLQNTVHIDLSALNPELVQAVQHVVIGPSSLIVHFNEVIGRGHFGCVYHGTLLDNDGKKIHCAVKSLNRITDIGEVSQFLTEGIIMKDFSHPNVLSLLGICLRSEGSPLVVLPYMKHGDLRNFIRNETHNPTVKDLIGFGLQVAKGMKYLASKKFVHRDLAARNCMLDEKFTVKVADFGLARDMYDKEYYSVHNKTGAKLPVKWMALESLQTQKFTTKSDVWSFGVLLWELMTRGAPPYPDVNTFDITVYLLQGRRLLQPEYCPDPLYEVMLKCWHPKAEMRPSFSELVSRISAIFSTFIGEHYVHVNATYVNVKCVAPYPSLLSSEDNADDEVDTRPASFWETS
- MEASUREMENT_DESCRIPTION: cell-based or functional assay
Please make sure the unit comes right after the number.

Known results for binders:
BINDER	VALUE_REPORTED
ECB107 (designed binder, not shown: small tags and cut ends, Bispecific: P54AR4-83v23, (AP)5, P114AR9P121-A6v2) MLPAPKNLVVSEVTEDSARLSWDDPHAFYESFLIQYQESEKVGEAIVLTVPGSERSYDLTGLKPGTEYTVSIYGVHNVYKDTNIRGLPLSAIFTTAPAPAPAPAPLPAPKNLVVSRVTEDSARLSWTAPDAAFDSFWIRYFEFVGSGEAIVLTVPGSERSYDLTGLKPGTEYVVNILGVKGGSISPPLSAIFTT	29.9 nM
ECB97 (designed binder, not shown: small tags and cut ends, Bispecific: P54AR4-83v22, (AP)5, P114AR7P95-C5v2) MLPAPKNLVVSEVTEDSARLSWDDPWAFYESFLIQYQESEKVGEAIVLTVPGSERSYDLTGLKPGTEYTVSIYGVHNVYKDTNIRGLPLSAIFTTAPAPAPAPAPLPAPKNLVVSRVTEDSARLSWTAPDAAFDSFWIRYFEFLGSGEAIVLTVPGSERSYDLTGLKPGTEYVVNILSVKGGSISPPLSAIFTT	24.2 nM
ECB95 (designed binder, not shown: small tags and cut ends, Bispecific: P54AR4-83v22, (AP)5, P114AR9P121-A6v2) MLPAPKNLVVSEVTEDSARLSWDDPWAFYESFLIQYQESEKVGEAIVLTVPGSERSYDLTGLKPGTEYTVSIYGVHNVYKDTNIRGLPLSAIFTTAPAPAPAPAPLPAPKNLVVSRVTEDSARLSWTAPDAAFDSFWIRYFEFVGSGEAIVLTVPGSERSYDLTGLKPGTEYVVNILGVKGGSISPPLSAIFTT	179 nM

Now look at this entry.
-- ask Consider the binder ECB94 (designed binder, not shown: small tags and cut ends, Bispecific: P54AR4-83v22, (AP)5, P114AR7P94-A3v22) MLPAPKNLVVSEVTEDSARLSWDDPWAFYESFLIQYQESEKVGEAIVLTVPGSERSYDLTGLKPGTEYTVSIYGVHNVYKDTNIRGLPLSAIFTTAPAPAPAPAPLPAPKNLVVSRVTEDSARLSWTAPDAAFDSFWIRYFEFLGSGEAIVLTVPGSERSYDLTGLKPGTEYVVNILGVKGGKISPPLSAIFTT . State its measured pMet inhibition in H441 cells IC50.
-- reply 53.8 nM

Every entry's value here was drawn from patent US20210301025A1.
